All values here come from ChEMBL document CHEMBL4002625.

Please consider the recorded IC50 for Aldo-keto reductase family 1 member B1 (Rattus norvegicus, UniProt P07943) in what follows.
MEASURE: IC50 (µM)

{"columns": ["MOLECULAR_STRING", "QUANTITATIVE_RESULT"],
 "data": [
  ["COc1ccc2nc(-c3ccc(O)cc3)c(=O)n(CC(=O)O)c2c1", 2.08],
  ["O=C(O)Cn1c(=O)c(-c2ccccc2)nc2cc(O)ccc21", 4.29],
  ["O=C(O)Cn1c(=O)c(/C=C/c2ccc(O)c(O)c2)nc2cc(O)ccc21", 0.159],
  ["COc1ccc2nc(-c3cc(O)ccc3O)c(=O)n(CC(=O)O)c2c1", 0.865],
  ["COc1ccc2nc(/C=C/c3ccccc3)c(=O)n(CC(=O)O)c2c1", 0.924],
  ["COc1ccc2nc(CCc3ccc(O)cc3)c(=O)n(CC(=O)O)c2c1", 0.508],
  ["O=C(O)Cn1c(=O)c(/C=C/c2ccc(O)c(O)c2)nc2ccc(O)cc21", 0.102],
  ["COc1ccc2c(c1)nc(-c1c(O)cc(O)cc1O)c(=O)n2CC(=O)O", 0.273],
  ["COc1ccc2nc(/C=C/c3ccc(O)c(OC)c3)c(=O)n(CC(=O)O)c2c1", 0.21]
]}
